The following molecules are shown together with reported TGI values.
system: BT-549 breast; assay: NCI tumour cell line growth inhibition, 48 h
QUANTITY_KIND: TGI

# MOLECULE, QUANTITY_KIND, RESULT
measured = [
    ("CC(C)(C)NCC(O)COc1cccc2[nH]c(C#N)cc12 (stereo unspecified)", "TGI", "> 100 µM"),
    ("Cc1ccc(S(=O)(=O)OC2CN3CCC2CC3)cc1 (stereo unspecified)", "TGI", "> 100 µM"),
    ("S=C1c2cc(Cl)ccc2NC(=NC2CCCC2)C2CSCN12 (stereo unspecified)", "TGI", "> 100 µM"),
    ("CC1SC(c2cccs2)N(NC(=O)C(O)c2ccccc2)C1=O (stereo unspecified)", "TGI", "> 100 µM"),
    ("NC12c3c4cccc3Oc3cccc(c31)Oc1cccc(c12)O4", "TGI", "> 50 µM"),
    ("C#CCNC(Cc1ccccc1)C(=O)O (stereo unspecified)", "TGI", "> 100 µM"),
]
